TARGET_UNDER_TEST: Estrogen Receptor (Homo sapiens)
Sequence (P03372 1-595): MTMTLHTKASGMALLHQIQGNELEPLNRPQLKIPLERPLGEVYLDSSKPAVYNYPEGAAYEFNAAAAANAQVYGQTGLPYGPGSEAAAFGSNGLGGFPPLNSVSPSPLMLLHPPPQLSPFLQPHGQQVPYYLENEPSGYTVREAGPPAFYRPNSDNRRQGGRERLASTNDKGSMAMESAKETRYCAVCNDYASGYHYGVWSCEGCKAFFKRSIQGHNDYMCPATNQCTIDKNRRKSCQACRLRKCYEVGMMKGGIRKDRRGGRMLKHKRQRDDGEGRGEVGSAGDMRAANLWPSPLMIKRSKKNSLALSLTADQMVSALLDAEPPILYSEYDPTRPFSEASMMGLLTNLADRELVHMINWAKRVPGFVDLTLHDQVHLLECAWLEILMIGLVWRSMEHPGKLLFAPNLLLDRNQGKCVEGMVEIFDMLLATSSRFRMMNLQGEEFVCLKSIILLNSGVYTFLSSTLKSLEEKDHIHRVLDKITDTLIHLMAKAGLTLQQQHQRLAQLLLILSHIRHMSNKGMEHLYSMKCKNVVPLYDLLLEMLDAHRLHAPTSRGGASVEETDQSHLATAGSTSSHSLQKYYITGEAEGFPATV
READOUT_KIND: IC50 (µM)
Numbers only, in µM.

Query string: Short answer please: IC50, Estrogen Receptor (Homo sapiens), entry CCCCCCCCCc1ccc(O)cc1
Result string: 3.9

The values you see were collected from patent US6469127B1.
